Source listed as patent US20210253562A1.

# Tgt: EP3 membrane (EP3 receptor) (Homo sapiens)
# Construct: purchased Millipore HTS092M
# Sequence (P43115 1-390): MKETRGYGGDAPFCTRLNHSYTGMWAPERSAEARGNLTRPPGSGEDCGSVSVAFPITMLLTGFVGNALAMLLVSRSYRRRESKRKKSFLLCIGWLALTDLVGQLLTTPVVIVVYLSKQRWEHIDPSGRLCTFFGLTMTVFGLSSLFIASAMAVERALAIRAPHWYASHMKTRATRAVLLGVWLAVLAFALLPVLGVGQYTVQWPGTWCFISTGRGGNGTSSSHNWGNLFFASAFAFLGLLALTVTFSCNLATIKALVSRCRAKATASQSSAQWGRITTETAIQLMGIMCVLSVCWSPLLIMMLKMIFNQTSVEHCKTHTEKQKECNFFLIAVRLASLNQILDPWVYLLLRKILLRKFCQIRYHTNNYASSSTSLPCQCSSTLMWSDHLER
# Assay details: [3H]-PGE2 binding; EP3 competition binding (SPA)
Lab note: anything with Ki below 0.06 µM is marked true; values at 0.06 µM or higher are marked false.

>  <Compound>
O=C(NC/C(F)=C1\CCCCc2cnn(Cc3ccc(Cl)cc3Cl)c21)NS(=O)(=O)c1ccc(Cl)cc1 [Compound #98]

>  <Category label>
false

$$$$
>  <Compound>
O=C(NC/C(F)=C1/CCCc2onc(-c3ccc(Cl)cc3)c21)NS(=O)(=O)c1ccc(Cl)cc1 [Compound #96]

>  <Category label>
false

$$$$
>  <Compound>
O=C(C/C=C1\CCCc2cnn(Cc3ccc(Cl)cc3Cl)c21)NS(=O)(=O)c1cc(F)cc(F)c1 [Compound #19]

>  <Category label>
true

$$$$
>  <Compound>
O=C(NC/C=C1\CCCc2cnn(-c3cccc4ccccc34)c21)NS(=O)(=O)c1cc(Cl)c(Cl)s1 [Compound #78]

>  <Category label>
true

$$$$
>  <Compound>
COc1ccc(S(=O)(=O)NC(=O)NC/C=C2\COCc3cnn(Cc4ccc(Cl)cc4Cl)c32)cc1 [Compound #62]

>  <Category label>
false

$$$$

Q: Identify whether the compound CN1CCC(n2ncc3c2/C(=C/CNC(=O)NS(=O)(=O)c2cc(Cl)c(Cl)s2)CCC3)CC1 [Compound #151] records Ki below 0.06 µM.
Result: false

Q: Identify whether the compound O=C(NS(=O)(=O)c1cc(Cl)c(Cl)s1)OC/C(F)=C1/CCCc2cnn(Cc3ccc(Cl)cc3Cl)c21 [Compound #35] records Ki below 0.06 µM.
Result: false

Q: Identify whether the compound O=C(C/C=C1\CCCc2cnn(Cc3ccc(Cl)cc3Cl)c21)NS(=O)(=O)c1cc(Cl)c(Cl)s1 [Compound #3] records Ki below 0.06 µM.
Result: true

Q: Identify whether the compound O=C(NC/C(F)=C1\CCCc2cnn(Cc3ccc(Cl)cc3Cl)c21)NS(=O)(=O)c1cc2ccccc2s1 [Compound #121] records Ki below 0.06 µM.
Result: true

Q: Identify whether the compound O=C(NC/C=C1\CCCc2cnn(-c3cccc(C(F)(F)F)c3)c21)NS(=O)(=O)c1cc(Cl)c(Cl)s1 [Compound #92] records Ki below 0.06 µM.
Result: true

Q: Identify whether the compound Cc1cc(S(=O)(=O)NC(=O)NC/C(F)=C2\CCCc3cnn(Cc4ccc(Cl)cc4Cl)c32)n(C)n1 [Compound #193] records Ki below 0.06 µM.
Result: false

Q: Identify whether the compound O=C(NS(=O)(=O)c1ccc(Cl)cc1)OC/C=C1\CC(F)(F)Cc2cnn(Cc3ccc(Cl)cc3Cl)c21 [Compound #37] records Ki below 0.06 µM.
Result: false
